Would you mind telling me the reported EC50 of each entry?
Tested on: Jurkat HIV-luciferase clones
Assay: Jurkat latency reversal assay
Format: cell-based
Details: Homo sapiens, 48 h; Jurkat latency reversal assay potency; read-out: Jurkat pEC50 (converted)

Query: What reported EC50 corresponds to C[C@@H]1CN(CC(=O)N2CC(C)(C)c3[nH]c(=O)c(Cc4ccc(F)cc4)cc32)[C@@H](CN2CCC(CN(C)Cc3ccc(CN(C)CC4CCN(C[C@H]5CN[C@H](C)CN5CC(=O)N5CC(C)(C)c6[nH]c(=O)c(Cc7ccc(F)cc7)cc65)CC4)cc3)CC2)CN1 on Jurkat HIV-luciferase clones?
Reply: 0.49 to 12.6 nM

Query: Recall the recorded EC50 for C[C@@H]1CN(CC(=O)N2CC(C)(C)c3[nH]c(=O)c(Cc4ccc(F)cc4)cc32)[C@@H](CN2CCO[C@H](COc3ccc(Cl)c(OC[C@@H]4CN(C[C@H]5CN[C@H](C)CN5CC(=O)N5CC(C)(C)c6[nH]c(=O)c(Cc7ccc(F)cc7)cc65)CCO4)c3)C2)CN1 with Jurkat HIV-luciferase clones and state it.
Reply: 0.49 to 12.6 nM

Query: Observed EC50 on Jurkat HIV-luciferase clones for C[C@@H]1CN(CC(=O)N2CC(C)(C)c3[nH]c(=O)c(Cc4ccc(F)cc4)cc32)[C@@H](CN2CCC(CN(C)C(=O)Cc3ccc(C(=O)N(C)CC4CCN(C[C@H]5CN[C@H](C)CN5CC(=O)N5CC(C)(C)c6[nH]c(=O)c(Cc7ccc(F)cc7)cc65)CC4)cc3)CC2)CN1 , please.
Reply: 63.1 to 316 nM

Query: Identify the measured EC50 of C[C@@H]1CN(CC(=O)N2CC(C)(C)c3[nH]c(=O)c(Cc4ccccc4)cc32)[C@@H](CN2CCO[C@H](C(=O)NCc3ccc(CNC(=O)[C@@H]4CN(C[C@H]5CN[C@H](C)CN5CC(=O)N5CC(C)(C)c6[nH]c(=O)c(Cc7ccccc7)cc65)CCO4)cc3)C2)CN1 for Jurkat HIV-luciferase clones.
Reply: 12.6 to 63.1 nM

Query: Entry C[C@@H]1CN(CC(=O)N2CC(C)(C)c3[nH]c(=O)c(Cc4ccc(F)cc4)cc32)[C@@H](CN2CCO[C@H](C(=O)NCCCCCCCCCCNC(=O)[C@@H]3CN(C[C@H]4CN[C@H](C)CN4CC(=O)N4CC(C)(C)c5[nH]c(=O)c(Cc6ccc(F)cc6)cc54)CCO3)C2)CN1 , system Jurkat HIV-luciferase clones: what EC50 was measured?
Reply: 63.1 to 316 nM

Query: Request - read-out EC50 | tested on Jurkat HIV-luciferase clones | molecule C[C@@H]1CN(CC(=O)N2CC(C)(C)c3[nH]c(=O)c(Cc4ccc(F)cc4)cc32)[C@@H](CN2CCO[C@H](C(=O)NCCCC(=O)N3CCN(C[C@H]4CN[C@H](C)CN4CC(=O)N4CC(C)(C)c5[nH]c(=O)c(Cc6ccc(F)cc6)cc54)[C@H](C)C3)C2)CN1
Reply: 63.1 to 316 nM

Query: Which measured EC50 belongs to C[C@@H]1CN(CC(=O)N2CC(C)(C)c3[nH]c(=O)c(Cc4ccc(F)cc4)cc32)[C@@H](CN2CCO[C@H](COc3cccc(OC[C@@H]4CN(C[C@H]5CN[C@H](C)CN5CC(=O)N5CC(C)(C)c6[nH]c(=O)c(Cc7ccc(F)cc7)cc65)CCO4)c3Cl)C2)CN1 , tested on Jurkat HIV-luciferase clones?
Reply: 0.49 to 12.6 nM

Query: Notebook entry, Jurkat HIV-luciferase clones assay: EC50 of COc1cc(F)ccc1Cc1cnc2c(c1)N(C(=O)CN1C[C@@H](C)NC[C@@H]1CN1CCO[C@H](COc3cccc(OC[C@@H]4CN(C[C@H]5CN[C@H](C)CN5CC(=O)N5CC(C)(C)c6ncc(Cc7ccc(F)cc7OC)cc65)CCO4)c3)C1)CC2(C)C = ?
Reply: 63.1 to 316 nM

Query: Report EC50 for C[C@@H]1CN(CC(=O)N2CC(C)(C)c3[nH]c(=O)c(Cc4ccc(F)cc4)cc32)[C@@H](CN2CCO[C@H](COc3ccc(Oc4cccc(Oc5ccc(OC[C@@H]6CN(C[C@H]7CN[C@H](C)CN7CC(=O)N7CC(C)(C)c8[nH]c(=O)c(Cc9ccc(F)cc9)cc87)CCO6)cc5)c4)cc3)C2)CN1 tested on Jurkat HIV-luciferase clones.
Reply: 12.6 to 63.1 nM

Query: Item: C[C@@H]1CN(CC(=O)N2CC(C)(C)c3[nH]c(=O)c(Cc4ccc(F)cc4)cc32)[C@@H](CN2CCC[C@@H](NC(=O)CCCCCCCCCCCCC(=O)N[C@@H]3CCCN(C[C@H]4CN[C@H](C)CN4CC(=O)N4CC(C)(C)c5[nH]c(=O)c(Cc6ccc(F)cc6)cc54)C3)C2)CN1 Test system: Jurkat HIV-luciferase clones Read-out: EC50 Value: ?
Reply: 63.1 to 316 nM

Query: Find EC50 (Jurkat HIV-luciferase clones) for the entry C[C@@H]1CN(CC(=O)N2CC(C)(C)c3[nH]c(=O)c(Cc4ccc(F)cc4)cc32)[C@@H](CN2CCC(CC(=O)NCc3ccc(CNC(=O)CC4CCN(C[C@H]5CN[C@H](C)CN5CC(=O)N5CC(C)(C)c6[nH]c(=O)c(Cc7ccc(F)cc7)cc65)CC4)cc3)CC2)CN1
Reply: 63.1 to 316 nM

Query: So what EC50 did C[C@@H]1CN(CC(=O)N2CC(C)(C)c3[nH]c(=O)c(Cc4ccc(F)cc4)cc32)[C@@H](CN2CCO[C@H](C(=O)NCC(O)CNC(=O)[C@@H]3CN(C[C@H]4CN[C@H](C)CN4CC(=O)N4CC(C)(C)c5[nH]c(=O)c(Cc6ccc(F)cc6)cc54)CCO3)C2)CN1 get with Jurkat HIV-luciferase clones?
Reply: 63.1 to 316 nM

Query: API: value(readout=EC50, system=Jurkat HIV-luciferase clones) for record C[C@@H]1CN(CC(=O)N2CC(C)(C)c3ncc(Cc4ccc(F)cc4)cc32)[C@@H](CN2CCO[C@H](COc3cccc(OC[C@@H]4CN(C[C@H]5CN[C@H](C)CN5CC(=O)N5CC(C)(C)c6ncc(Cc7ccc(F)cc7)cc65)CCO4)c3)C2)CN1
Reply: 12.6 to 63.1 nM

Query: # get_value(readout= EC50, system= Jurkat HIV-luciferase clones) for C[C@@H]1CN(CC(=O)N2CC(C)(C)c3[nH]c(=O)c(Cc4ccc(F)cc4)cc32)[C@@H](CN2CCO[C@H](C(=O)NCCCN(C)C(=O)[C@@H]3CN(C[C@H]4CN[C@H](C)CN4CC(=O)N4CC(C)(C)c5[nH]c(=O)c(Cc6ccc(F)cc6)cc54)CCO3)C2)CN1
Reply: 63.1 to 316 nM
